We begin with a simple list: items and their reported IC50.
# TEST SYSTEM: α-glucosidase
# ASSAY DETAILS: α-glucosidase enzyme inhibition assay (starch substrate, anthrone reagent, 640 nm)
# Format: biochemical
# COND: Table 4 (Met series), read-out: IC50

COMPOUND	TEST SYSTEM	IC50 (µM)
C/C(=N\C(=N)NC(=N)N(C)C)c1ccccc1	α-glucosidase	1300
CC(C)=NC(=N)NC(=N)N(C)C	α-glucosidase	2000
CN(C)C(=N)NC(=N)N=C(c1ccccc1)c1ccccc1	α-glucosidase	900
CN(C)C(=N)N=C(N)N [Met, N,N-dimethyltriimidodicarbonic diamide, reference compound]	α-glucosidase	4800
